Known inhibition of SARS-CoV-2 cytopathic effect of a selection of compounds
Test system: Vero E6 infected with SARS-CoV-2
Assay: inhibition of SARS-CoV-2 cytopathic effect; higher = more antiviral protection, active = above 15
Conditions: 833.33 nM; 48 h
readout kind: inhibition of SARS-CoV-2 cytopathic effect (%)

compound	target desc	value observed
O=C(O)[C@@H]1C[C@@H](C2CCCCC2)CN1C(=O)CP(=O)(O)CCCCc1ccccc1 [fosinoprilat]	Vero E6 infected with SARS-CoV-2	0.83
O=C(/C=C/c1ccc(O)cc1)c1ccc(O)cc1O [isoliquiritigenin]	Vero E6 infected with SARS-CoV-2	0.63
CC1(CN)Cc2ccccc2C1	Vero E6 infected with SARS-CoV-2	1.99
Cc1cc(CN2CCN(c3c(Br)cnc4nc(-c5ccc(N6CCN(C)CC6)cc5)[nH]c34)CC2)no1	Vero E6 infected with SARS-CoV-2	-5
CN/C(=N\c1ccc(C2=NNC(=O)CC2C)cc1)NC#N (stereo not given) [siguazodan]	Vero E6 infected with SARS-CoV-2	1.67
CCCOC(C(=O)OC1CCN(C)CC1)(c1ccccc1)c1ccccc1 [propiverine]	Vero E6 infected with SARS-CoV-2	-0.19
COc1cc2c(cc1OC)CN(C(=O)[C@@H](NCc1ccncc1)C(C)(C)C)CC2	Vero E6 infected with SARS-CoV-2	1.04
NCC(CC(=O)O)c1ccc(Cl)cc1 (stereo not given) [baclofen]	Vero E6 infected with SARS-CoV-2	0.04
CCN1CCC(n2cc(CNc3cc(Cl)c4ncc(C#N)c(Nc5ccc(F)c(Cl)c5)c4c3)nn2)CC1 [cot-inhibitor-2]	Vero E6 infected with SARS-CoV-2	-0.75
CN1C(C(=O)Nc2ccccn2)=C(O)c2sccc2S1(=O)=O [tenoxicam]	Vero E6 infected with SARS-CoV-2	0.7
